System under test: human CAIX on CHO cells (CHO-hCAIX) (human, UniProt Q16790 38-459)
Experiment: flow cytometry on CHO-hCAIX cells, anti-human IgG-Fc PE
Each entry below carries its recorded pEC50.
Bear in mind: pEC50 is minus log10 of a mol/L concentration; give just that figure.

binder="H-YE-33 (Fc fusion, also called CAIX nanobody H-YE-33; not shown: human IgG1 Fc segment) QVQLQESGGGLVQPGGSLRLSCAASGGDFRFYDMGWYRQAPGKQRELVAGITTRGYTNYADVVKGRFTISRDNAKNTVYLEMNSLKPEDTAVYSCSASHFLGGRIDYWGQGTQVTVSS" reported_value=8.56
binder="H-YE-04 (Fc fusion, also called CAIX nanobody H-YE-04; not shown: human IgG1 Fc segment) QVQLQESGGGLVQPGGSLRLSCTASTSSFNFQTLGWYRQAPGNQRELVATITSRAITNYADSVKGRFTISRDNAAKTVSLQMNSLKPEDTAVYYCNAAWIGDYWGQGTQVTVSS" reported_value=8.11
binder="H-YE-32 (Fc fusion, also called CAIX nanobody H-YE-32; not shown: human IgG1 Fc segment) QVQLQESGGGLVQPGGSLRLSCAASGGARNIFSFAAMAWYRQAPGKQRELVAVITSAGGTQYSSSVKGRFTISRDNAKKTVLLQMNSLKPEDTAVYYCNADYYQDYWGQGTQVTVSS" reported_value=8.21
binder="H-YE-40 (Fc fusion, also called CAIX nanobody H-YE-40; not shown: human IgG1 Fc segment) QVQLQESGGGLVQAGGSLRLSCAASGRTFSSYAMGWFRQAPGKEREFVATISWNGGSTYYADSVKGRFTISRDNAKNTVYLQMNSLKPEDTAVYYCAAEHDLGELAGTGYDYWGQGTQVTVSS" reported_value=8.32
binder="H-YE-05 (Fc fusion, also called CAIX nanobody H-YE-05; not shown: human IgG1 Fc segment) QVQLQESGGGLVQPGGSRRLSCAASGNSVNIFSFAAVAWYRQAPGKQRELVAVITTTGGTKYSDSVKGRFTISRDSAKNTVLLQMNSLKPEDTAVYYCNADYLQDYWGQGTQVTVSS" reported_value=8.06
binder="H-YE-25 (Fc fusion, also called CAIX nanobody H-YE-25; not shown: human IgG1 Fc segment) QVQLQESGGGLVQPGGSLRLSCAASGNSVNIFRFAAMAWYRQAPGKQRELVAVITTTGGTKYSDSVKGRFTISRDSAKNTVLLQMNSLKPEDTAVYYCNADYLQDYWGQGTQVTVSS" reported_value=8.61

Now for a further binder.
Noted for H-YE-24 (Fc fusion, also called CAIX nanobody H-YE-24; not shown: human IgG1 Fc segment) QVQLQESGGGLVQPGGSLRLSCAASGNSVNIFRFAAMAWYRQAPGKQRELVAVITSAGGTKYSDSVKGRFTISRDNAKNTVLLQMNSLKPEDTAVYYCNADYLQDYWGQGTQVTVSS : its pEC50 reads 8.51
